The reported numbers originate from paper PMC12675387.

- System under test: hα2A adrenergic receptor (Homo sapiens, UniProt P08913)
- Sequence (P08913 whole entry): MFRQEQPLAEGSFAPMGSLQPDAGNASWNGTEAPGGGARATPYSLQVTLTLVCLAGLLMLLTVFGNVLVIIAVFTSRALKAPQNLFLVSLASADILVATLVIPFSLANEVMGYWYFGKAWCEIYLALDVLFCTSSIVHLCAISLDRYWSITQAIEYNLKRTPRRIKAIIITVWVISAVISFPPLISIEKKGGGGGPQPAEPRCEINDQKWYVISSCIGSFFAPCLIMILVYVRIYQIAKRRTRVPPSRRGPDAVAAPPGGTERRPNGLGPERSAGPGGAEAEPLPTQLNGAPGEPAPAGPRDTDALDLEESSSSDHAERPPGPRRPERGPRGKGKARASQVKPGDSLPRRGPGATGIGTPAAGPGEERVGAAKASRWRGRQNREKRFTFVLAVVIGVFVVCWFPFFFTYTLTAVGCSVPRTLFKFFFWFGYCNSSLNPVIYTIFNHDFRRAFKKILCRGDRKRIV
- Experiment description: Radioligand binding, α2A adrenergic receptor ([3H]rauwolscine)
So I've got a bunch of compounds here, and I need their log10 Ki values.
Would you kindly interpret these values as log10 of Ki expressed in nM?

Which log10 Ki value belongs to `CCOc1cc(OC)c(CCN)c(OC)c1` ? 2.83

Next: COc1cc(OCCF)cc(OC)c1CC(C)N (centres unmarked) 3.61

`C=CCOc1cc(OC)c(CCN)c(OC)c1` , same question. 2.49

Then what about the compound `COc1cc(OCC(F)F)cc(OC)c1CCN` ? 3.00

Same for C=C(C)COc1cc(OC)c(CC(C)N)c(OC)c1 (centres unmarked) 3.15

Same thing, different compound: `C=C(C)COc1cc(OC)c(CCN)c(OC)c1` 2.45

Same question for `COc1cc(OC(F)F)cc(OC)c1CCN` please. 2.65

Can you check COc1cc(OC(F)F)cc(OC)c1CC(C)N (centres unmarked) next? 3.36

Please answer likewise for COc1cc(OCC(F)(F)F)cc(OC)c1CC(C)N (centres unmarked) 3.58

For COc1cc(OCC(F)F)cc(OC)c1CC(C)N (centres unmarked) then? 3.52

Next: `COc1cc(OCc2ccccc2)cc(OC)c1CCN` 2.61

How about `COc1cc(OCC(F)(F)F)cc(OC)c1CCN` ? 3.18

Can you check COc1cc(OCc2ccccc2)cc(OC)c1CC(C)N (centres unmarked) next? 3.30

Field entry: CCOc1cc(OC)c(CC(C)N)c(OC)c1 (centres unmarked) 3.34

Do the same for C=CCOc1cc(OC)c(CC(C)N)c(OC)c1 (centres unmarked) please 3.26

Next record, please: COc1cc(OC)c(CC(C)N)c(OC)c1 (centres unmarked) 3.49

Try this compound next: `COc1cc(OC)c(CCN)c(OC)c1` 2.89

====

- System under test: human 5-HT2A receptor (Homo sapiens, UniProt P28223)
- Sequence (P28223 whole entry): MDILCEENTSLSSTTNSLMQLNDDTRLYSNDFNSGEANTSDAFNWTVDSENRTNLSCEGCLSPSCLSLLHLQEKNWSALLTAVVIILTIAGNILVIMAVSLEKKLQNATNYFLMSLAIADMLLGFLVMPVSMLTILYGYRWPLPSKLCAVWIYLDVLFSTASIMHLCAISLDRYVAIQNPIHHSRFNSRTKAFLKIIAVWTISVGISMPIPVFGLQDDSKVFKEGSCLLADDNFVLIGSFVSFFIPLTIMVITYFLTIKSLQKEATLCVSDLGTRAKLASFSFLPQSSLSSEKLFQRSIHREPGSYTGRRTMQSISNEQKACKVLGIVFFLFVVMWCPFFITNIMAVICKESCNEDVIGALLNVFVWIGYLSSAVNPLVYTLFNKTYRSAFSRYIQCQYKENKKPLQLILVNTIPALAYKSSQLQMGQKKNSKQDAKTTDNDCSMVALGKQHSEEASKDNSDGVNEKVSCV
- Experiment description: Activation potency and efficacy at the 5-HT2A receptor (FLIPR calcium, NIH-3T3 cells)
Exercise: state measured EC50 for each of the compounds provided.
Answer with a number only, understood to be in nM.

What measured EC50 is associated with `CCOc1cc(OC)c(CCN)c(OC)c1` on human 5-HT2A receptor (Homo sapiens, UniProt P28223)? 99

Also CCOc1cc(OC)c(CC(C)N)c(OC)c1 (stereo not shown) ? 650

Entry to check: `C=C(C)COc1cc(OC)c(CCN)c(OC)c1` 200

Also `COc1cc(OCc2ccccc2)cc(OC)c1CCN` ? 410

What about COc1cc(OC(F)F)cc(OC)c1CC(C)N (stereo not shown) ? 300

Also need `COc1cc(OC)c(CCN)c(OC)c1` , thanks. 110

Item: C=CCOc1cc(OC)c(CC(C)N)c(OC)c1 (stereo not shown) 180

====

- System under test: h5-HT2A receptor (Homo sapiens)
- Sequence (P28223 whole entry): as above
- Experiment description: Radioligand binding, 5-HT2A receptor ([3H]ketanserin)
- Condition set: preference for 5-HT2A (Ki 5-HT1A divided by Ki 5-HT2A)
For each record, write down the corresponding Selectivity (binding ratio) 5-HT2A/5-HT1A.

Which Selectivity (binding ratio) 5-HT2A/5-HT1A reading was recorded for the compound COc1cc(OC)c(CC(C)N)c(OC)c1 (stereo not drawn) ? >21

Same again, this time with COc1cc(OCC(F)F)cc(OC)c1CC(C)N (stereo not drawn) >6

Same again, this time with `COc1cc(OCC(F)(F)F)cc(OC)c1CCN` 4

Now the compound C=C(C)COc1cc(OC)c(CC(C)N)c(OC)c1 (stereo not drawn) >108

Another compound: `COc1cc(OCc2ccccc2)cc(OC)c1CCN` 280

Item: COc1cc(OCC(F)(F)F)cc(OC)c1CC(C)N (stereo not drawn) >10

Try `C=C(C)COc1cc(OC)c(CCN)c(OC)c1` next. 32

Now try C=CCOc1cc(OC)c(CC(C)N)c(OC)c1 (stereo not drawn) . >75

Repeat for the following compound: CCOc1cc(OC)c(CC(C)N)c(OC)c1 (stereo not drawn) >11

Now this one: `COc1cc(OCC(F)F)cc(OC)c1CCN` 0.8

And for COc1cc(OC(F)F)cc(OC)c1CC(C)N (stereo not drawn) ? 61

Follow-up item: COc1cc(OCCF)cc(OC)c1CC(C)N (stereo not drawn) >4
